cytotoxicity at 70.5 h for assorted compounds
assay: Human HepG2 cell viability assay in 384 well format; assay type: toxicity, cell-based; parameters: dose 125 nL, time 70.5 hour; concentration not given beside the values; settings: HepG2 cells, read-out: Inhibition
Supply the numeric figure in %, leaving out any unit text.

Data request: Which value of cytotoxicity at 70.5 h has been reported for N#Cc1ccc(N2CCC3(CCC(=O)N3CCN3CCCC3)CC2)nc1 in the records?
Data returned: -9.44

====

assay: Human HepG2 cell viability assay in 384 well format; format: toxicity, cell-based; design: dose 125 nL, time 70.5 hour; concentration not given beside the values; conditions: HepG2 cells, read-out: Inhibition
READOUT: cytotoxicity at 70.5 h (%)
# value in %; strip the unit string

CC(CNC1CCN(Cc2ccncc2)CC1)c1ccc(F)cc1F (configuration not stated); -11
CN1CCc2c(NC(=O)NCc3ccccc3Cl)cccc21; -1.74
c1cc(CNCC2CNc3ccnn3C2)cc(OC2CCCCC2)n1 (configuration not stated); -7.62
Nc1nccnc1CC1CCCN(Cc2c[nH]c3ccccc23)C1 (configuration not stated); -9.09
Cc1cc(NC(=O)NCC2COc3ccccc3C2)no1 (configuration not stated); 52
COc1ccccc1OCCC(=O)N1CCCC1Cn1cc(C)cn1 (configuration not stated); -6.74

Below: the item to evaluate.
Data request: Name the recorded cytotoxicity at 70.5 h for CCOc1ccnc(N2CCN(C(=O)c3cccc(C#N)c3)CC2)n1 .
Data returned: -6.91

====

Recorded cytotoxicity at 70.5 h, one value per entry.
experiment: Human HepG2 cell viability assay in 384 well format; type: toxicity, cell-based; parameters: dose 125 nL, time 70.5 hour; concentration not given beside the values; conditions: HepG2 cells, read-out: Inhibition
Dear colleague, please return just the value in %, with no unit written.

Cc1cnn(CC(C)NCCc2cccs2)c1 (configuration not stated); 23.7

Data request: What cytotoxicity at 70.5 h value was documented for this molecule, Cc1nc(Cn2c3c(ccc2=O)CCN(CC2CCC2)CC3)cs1 ?
Data returned: -9.15

Data request: Try this molecule too: O=C(Nc1cccn(Cc2ccccc2)c1=O)c1ccncc1F
Data returned: 14.1

Data request: Here is the next molecule: CN(C)C(=O)[C@H]1C[C@H]2OCC[C@H]2N(Cc2ccc3c(c2)OCO3)C1
Data returned: 0.648

Data request: Check CCCNC(=O)c1ccc(S(=O)(=O)NCC2(COC)CCCC2)cc1 too.
Data returned: -4.17

Data request: Ok, now CCNc1cc2c(nn1)CCN(C(=O)Cc1ccc(C)nc1)C2
Data returned: -6.5

Data request: Thanks! And O=C(NCC1(O)CCSC1)c1ccoc1 (configuration not stated) ?
Data returned: -5.15

Data request: One more molecule: CCc1c(C(=O)NCC(=O)OCC2CC2)cnn1-c1ccc(C)cc1
Data returned: 27.6

Data request: And what about the molecule Cc1cc(C)c(C(=O)N2CCOCC2c2c(C)n[nH]c2C)o1 (configuration not stated) ?
Data returned: -6.5

Data request: For CCN1C(=O)C[C@@H]2[C@@H]1CCN2S(=O)(=O)c1cccc(C)c1 then?
Data returned: 12.1

====

test: Human HepG2 cell viability assay in 384 well format; format: toxicity, cell-based; parameters: dose 125 nL, time 70.5 hour; concentration not given beside the values; settings: HepG2 cells, read-out: Inhibition
READOUT: cytotoxicity at 70.5 h (%)
Kindly answer with a numeric value in %, unit omitted.

COCc1nn(C(C)C)c2c1CCN(Cc1ccc(C)o1)C2; -4.09
Cc1cc(C)n(-c2cncc(NCCC(=O)NC(C)C)n2)n1; -10.2
Cc1ccc(C2COCCN2C(=O)c2ccc(C)s2)o1 (centres undefined); -9.04
Cc1nn(-c2ccccc2)c(C)c1CC(=O)NC1CC(=O)N(C)C1 (centres undefined); -7.27
CCc1cc(NC(=O)C2CCCN(C(=O)NCC(C)C)C2)[nH]n1 (centres undefined); -17.1
Cc1ccc(N2CCCC(NCc3nc(C)c(C)o3)C2)nn1 (centres undefined); -14.3

Data request: Need cytotoxicity at 70.5 h, item Cc1cc(F)ccc1C(=O)N1C[C@@H]2COC[C@]2(CN(C)C)C1
Data returned: -14.9

Data request: Subsequent entry: Cc1cc(C(=O)Nc2nc3c(s2)CN(S(=O)(=O)C2CC2)CC3)c(C)o1
Data returned: 4.31

Data request: Same again, this time with CC(O)c1cn(CC2CCN(C(=O)c3cscn3)CC2)nn1 (centres undefined)
Data returned: -3.74

====

assay: Human HepG2 cell viability assay in 384 well format; type: toxicity, cell-based; parameters: dose 125 nL, time 70.5 hour; concentration not given beside the values; conditions: HepG2 cells, read-out: Inhibition
In this section, each of the compounds is paired with its reported cytotoxicity at 70.5 h.
Provide the reading as a plain figure in %.

Previously resolved entries follow.
O=C(Nc1ccccc1)N1CC(C(=O)N2CCCC2)C2(CCOCC2)C1 (centres undefined); -10.8
COCCn1nc(C(=O)N(C)Cc2cccnc2)ccc1=O; 4.23
Cn1cc(-c2nnn3c2COC(CNCc2nccs2)C3)cn1 (centres undefined); -25.2
CCOc1ccccc1CNC(=O)N1CCC(n2cncn2)CC1; -11.8
CC(=O)N1CCC(c2n[nH]cc2-c2ccnc(N)c2)C1 (centres undefined); 15.7

Data request: Report cytotoxicity at 70.5 h for CN(C)C(=O)CN1CCO[C@H]2CN(Cc3ccoc3)C[C@H]21 please.
Data returned: -4.25

Data request: Now this one: CC(C)N(C)[C@@H]1CCN(Cc2nccs2)[C@H]1Cc1ccncc1
Data returned: -8.84

Data request: Next: Cc1cccc2[nH]c(C3CCN(C(=O)c4cnc(O)cc4O)CC3)nc12
Data returned: 22.7

Data request: Next record, please: CCN(CC)CC(=O)N(C)C(c1cccc(F)c1)c1ccccn1 (centres undefined)
Data returned: 13.5

====

As shown below, each of these compounds has a reported cytotoxicity at 70.5 h value.
experiment: Human HepG2 cell viability assay in 384 well format; assay type: toxicity, cell-based; set-up: dose 125 nL, time 70.5 hour; concentration not given beside the values; conditions: HepG2 cells, read-out: Inhibition
A number alone suffices; assume %.

Worked cases, cytotoxicity at 70.5 h given:
CN1CCN(C(=O)C2CN(Cc3cc4ccccc4o3)CCN2)CC1 (configuration not stated); -3.72
CCc1nnc(CN2CCC3(CCC(=O)N(C4CCCC4)C3)CC2)o1; -7.05
Cc1nc(CCNC(=O)NCc2ccc(N(C)C)nc2)cs1; -8.72

Data request: Given the entry Cn1cc(C(=O)N2CCC(c3cc(CCO)n(C)n3)C2)cn1 (configuration not stated) , report its measured cytotoxicity at 70.5 h.
Data returned: -4.36

Data request: Please give the result for Cc1nn(C)cc1S(=O)(=O)NC1(CN2CCOCC2)CCCCC1 too.
Data returned: -3.14

Data request: And the next one, NC(=O)C1CN(C(=O)Nc2ccccc2Oc2ccccc2Cl)CCO1 (configuration not stated) ?
Data returned: -6.93

Data request: Consider next the compound CN(C)CC(NC(=O)c1ccn(C)c(=O)c1)c1ccccc1 (configuration not stated) in the same way.
Data returned: 0.262

Data request: Also Cc1ccc(CN2CCc3c(COC(C)C)nn(C)c3C2)s1 , if possible.
Data returned: -9.08

Data request: What do you have for CCOCC(=O)NCC1(NC(C)c2ccccc2)CCOCC1 (configuration not stated) ?
Data returned: -8.52

Data request: Same again, this time with Cc1nc(C2CCN(S(C)(=O)=O)CC2)nc2c1CCC(=O)N2CC(C)C
Data returned: -1.36

Data request: Same lookup for CN1CCC(Cc2cc(N(C)C)ncn2)C1 (configuration not stated) , please.
Data returned: 5.25

Data request: Please give the result for OCC1CCCN1c1cc(N2CCC(OC3CCCC3)CC2)ncn1 (configuration not stated) too.
Data returned: -3.18

====

# cytotoxicity at 70.5 h per record follows
assay: Human HepG2 cell viability assay in 384 well format; type: toxicity, cell-based; parameters: dose 125 nL, time 70.5 hour; concentration not given beside the values; settings: HepG2 cells, read-out: Inhibition
Could you give me the number in %? Just the number is fine.

Look over these answered cases.
CNC(=O)C(NC(C)=O)c1ccc(F)c(F)c1 (stereo unspecified); -1.65
O=C(CC(F)(F)F)NCC(O)c1ccc2ccccc2c1 (stereo unspecified); -3.75
O=C(c1ccccc1O)N1CCN(C(=O)C2CCC2)CC1; 16.4
Cn1c(C(=O)NC2CC2)nc2c1CCN(c1ncccn1)C2; -4.38
O=C(CC1CCCCC1)N1CCC(O)(C(F)(F)F)C1 (stereo unspecified); 1.99

Shifting focus to the molecule that follows.
Data request: I'd like to know its cytotoxicity at 70.5 h. The molecule in question is Cc1cc(C[C@@H]2COC[C@H]2NCc2ccc(C)c(C)c2)on1
Data returned: -7.12
